target: AmelOR109 (Apis mellifera); construct: gene Or109; full-length ORF, codon-optimized, pUAST.attB at 86F8; expressed in ab3A OSNs of D. melanogaster lacking OR22a/OR22b (empty neuron); endogenous Drosophila Orco as co-receptor; with Odorant receptor coreceptor; test: single sensillum recording, ab3A OSN, dose-response; type: cell-based; details: agonist; estimated airborne amount in stimulus, not a concentration; vs mineral oil; full curve only in Figure 5B
Sequence (A0A7M6UWX9 1-390): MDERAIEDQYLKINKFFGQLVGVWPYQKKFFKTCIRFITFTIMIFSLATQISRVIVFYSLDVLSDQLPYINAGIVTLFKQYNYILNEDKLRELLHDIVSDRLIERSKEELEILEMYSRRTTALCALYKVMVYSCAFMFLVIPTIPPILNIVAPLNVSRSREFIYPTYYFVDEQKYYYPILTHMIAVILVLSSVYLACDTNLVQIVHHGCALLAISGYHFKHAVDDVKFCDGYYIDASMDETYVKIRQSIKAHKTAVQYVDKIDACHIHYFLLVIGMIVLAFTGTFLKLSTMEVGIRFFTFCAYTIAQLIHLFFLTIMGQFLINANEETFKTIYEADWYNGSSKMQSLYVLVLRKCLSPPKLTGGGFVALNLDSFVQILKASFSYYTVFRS
Sequence (Q9VNB5 whole entry partner): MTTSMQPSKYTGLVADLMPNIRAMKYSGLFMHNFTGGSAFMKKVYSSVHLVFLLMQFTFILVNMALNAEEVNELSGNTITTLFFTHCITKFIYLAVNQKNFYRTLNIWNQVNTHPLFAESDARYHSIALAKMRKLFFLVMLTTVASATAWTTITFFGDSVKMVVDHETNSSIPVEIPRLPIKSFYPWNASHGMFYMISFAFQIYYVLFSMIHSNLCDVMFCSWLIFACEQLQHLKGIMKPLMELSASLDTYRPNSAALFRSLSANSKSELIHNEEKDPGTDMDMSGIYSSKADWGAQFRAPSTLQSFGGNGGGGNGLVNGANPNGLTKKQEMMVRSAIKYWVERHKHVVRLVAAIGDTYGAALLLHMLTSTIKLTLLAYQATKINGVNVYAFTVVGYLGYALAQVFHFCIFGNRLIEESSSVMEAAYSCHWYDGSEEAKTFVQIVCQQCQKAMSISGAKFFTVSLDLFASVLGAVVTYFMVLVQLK
Reported dose of statistical significance values for a set of compounds

>  <compound>
CCCCCCCCOC(C)=O [octyl acetate]

>  <dose of statistical significance, pmol>
15000

$$$$
>  <compound>
CC(=O)OCc1ccccc1 [benzyl acetate]

>  <dose of statistical significance, pmol>
390

$$$$
>  <compound>
CC(=O)OCCC(C)C [isopentyl acetate]

>  <dose of statistical significance, pmol>
2700

$$$$
>  <compound>
CCCC(=O)OCC [ethyl butyrate]

>  <dose of statistical significance, pmol>
47000

$$$$
